Kd for assorted binders
Biological target: T1, recombinant human activated Factor VII (FVIIa) (human, UniProt P08709 61-212; P08709 213-466, ten glutamate residues of the Gla domain may be gamma-carboxylated)
T1 construct: chains tethered by a disulfide bond; also called Factor VIIa; rFVIIa
T1 sequence 1: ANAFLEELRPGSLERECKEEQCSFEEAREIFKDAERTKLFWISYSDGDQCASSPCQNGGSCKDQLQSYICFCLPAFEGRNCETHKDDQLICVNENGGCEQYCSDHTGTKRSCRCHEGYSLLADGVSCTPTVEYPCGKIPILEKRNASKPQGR
T1 sequence 2: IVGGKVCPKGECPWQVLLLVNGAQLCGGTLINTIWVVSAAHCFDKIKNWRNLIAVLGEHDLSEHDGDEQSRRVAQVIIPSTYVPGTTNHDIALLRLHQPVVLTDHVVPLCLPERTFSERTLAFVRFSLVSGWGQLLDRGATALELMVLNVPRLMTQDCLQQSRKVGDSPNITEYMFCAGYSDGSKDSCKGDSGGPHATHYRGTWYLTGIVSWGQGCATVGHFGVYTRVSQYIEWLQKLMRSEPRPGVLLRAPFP
Assay: BLI (Fortebio)
readout: Kd (nM)

VH SEQ ID NO 530 / VL SEQ ID NO 318 (antibody, IgG4, V domains shown, humanized 11F2; IgG4 S228P/kappa) VH: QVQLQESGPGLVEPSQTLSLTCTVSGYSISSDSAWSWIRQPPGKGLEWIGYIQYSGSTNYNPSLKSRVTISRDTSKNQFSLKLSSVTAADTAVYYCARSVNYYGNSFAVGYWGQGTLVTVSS VL: EIVLTQSPATLSLSPGERATLSCRASQGISDYLHWYQQKPGEAPRLLIKYTSQPATGIPARFSGSGSGTDFTLTISSLEPEDFAVYYCQNGHSFPLTFGQGTKLEIK	1.2
VH SEQ ID NO 530 / VL SEQ ID NO 398 (antibody, IgG4, V domains shown, humanized 11F2; IgG4 S228P/kappa) VH: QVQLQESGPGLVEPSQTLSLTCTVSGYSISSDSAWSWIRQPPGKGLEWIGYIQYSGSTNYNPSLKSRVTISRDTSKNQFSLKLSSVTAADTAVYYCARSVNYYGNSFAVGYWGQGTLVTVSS VL: EIVLTQSPATLSLSPGERATLSCRASQGVSDYLAWYQQKPGEAPRLLIKYTSQPATGIPARFSGSGSGTDFTLTISSLEPEDFAVYYCQNGHSFPLTFGQGTKLEIK	7.1
VH SEQ ID NO 522 / VL SEQ ID NO 462 (antibody, IgG4, V domains shown, humanized 11F2; IgG4 S228P/kappa) VH: QVQLQESGPGLVEPSQTLSLTCTVSGYSISSDSAWSWIRQPPGKGLEWIGYIQYSGSTNYNPSLKSRVTISRDTSKNQFSLKLSSVTAADTAVYYCARSVNYYGNSFAVGPWGQGTLVTVSS VL: EIVLTQSPATLSLSPGERATLSCRASQGVSDYLHWYQQKPGQAPRLLIKYASQPATGIPARFSGSGSGTDFTLTISSLEPEDFAVYYCQNGHSFPLTFGAGTKLEIK	1.2
VH SEQ ID NO 650 / VL SEQ ID NO 398 (antibody, IgG4, V domains shown, humanized 11F2; IgG4 S228P/kappa) VH: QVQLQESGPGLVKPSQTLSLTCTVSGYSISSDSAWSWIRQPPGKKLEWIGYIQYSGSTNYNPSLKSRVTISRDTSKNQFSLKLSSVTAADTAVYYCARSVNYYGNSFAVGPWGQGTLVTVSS VL: EIVLTQSPATLSLSPGERATLSCRASQGVSDYLAWYQQKPGEAPRLLIKYTSQPATGIPARFSGSGSGTDFTLTISSLEPEDFAVYYCQNGHSFPLTFGQGTKLEIK	55
VH SEQ ID NO 538 / VL SEQ ID NO 462 (antibody, IgG4, V domains shown, humanized 11F2; IgG4 S228P/kappa) VH: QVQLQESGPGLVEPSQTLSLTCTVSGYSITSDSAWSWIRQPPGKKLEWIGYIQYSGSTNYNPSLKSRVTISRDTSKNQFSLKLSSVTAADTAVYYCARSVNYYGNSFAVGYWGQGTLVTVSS VL: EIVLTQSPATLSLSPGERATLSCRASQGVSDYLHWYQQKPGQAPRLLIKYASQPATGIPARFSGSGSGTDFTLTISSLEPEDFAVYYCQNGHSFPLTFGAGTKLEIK	1.3
